Where do the numbers come from? From patent US8895695B2.

Here the recorded IC50 is given for each entry.
biological target: CXCR4 (Homo sapiens, UniProt P61073); assay: Ca2+-assay method 2 (Flexstation, SDF-1 induced calcium mobilization); type: cell-based; set-up: expressed in transfected cells; host or cells: mouse pre-B cell line 300-19; details: method 2 (Ex. 54-160), mouse pre-B cell line 300-19 with human CXCR4, 10 nM SDF-1; read-out: IC50 (nM) Ca^2+ assay
Sequence (P61073 whole entry): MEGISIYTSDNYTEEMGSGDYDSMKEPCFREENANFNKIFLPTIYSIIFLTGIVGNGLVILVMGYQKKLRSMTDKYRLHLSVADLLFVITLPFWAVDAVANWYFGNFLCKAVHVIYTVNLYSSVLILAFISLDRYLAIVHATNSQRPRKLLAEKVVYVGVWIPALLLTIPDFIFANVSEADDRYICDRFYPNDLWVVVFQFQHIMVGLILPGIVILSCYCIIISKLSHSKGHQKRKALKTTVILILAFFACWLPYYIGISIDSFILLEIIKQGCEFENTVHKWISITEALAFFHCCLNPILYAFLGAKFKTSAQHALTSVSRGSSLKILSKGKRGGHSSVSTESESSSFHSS
Bridge positions count the residues as written; N and C are the ends. Square brackets hold non-standard residues; d marks the D form. Peptide text beside a SMILES is read from it. 2Nal = N[C@@H](Cc1ccc2ccccc2c1)C(=O)O; Cit = NC(=O)NCCC[C@H](N)C(=O)O
Respond with the bare value in nM.

Compound	Study Target	Quantity Name	Value Unit	Observed Measurement
N=C(N)NCCC[C@@H]1NC(=O)[C@@H]2CSSC[C@H](NC(=O)[C@H](Cc3ccc4ccccc4c3)NC(=O)[C@H](CCCNC(=N)N)NC(=O)[C@H](CCCNC(=N)N)NC(=O)[C@H]3CCCN3C(=O)CNC1=O)C(=O)N[C@@H](Cc1ccc(O)cc1)C(=O)N[C@@H](CCCNC(N)=O)C(=O)N[C@@H](CCCCN)C(=O)N1CCC[C@@H]1C(=O)N1CCC[C@H]1C(=O)N[C@@H](Cc1ccc(O)cc1)C(=O)N[C@@H](CCCNC(=N)N)C(=O)N[C@@H](CCC(N)=O)C(=O)N2 [Ex. 130] (cyclo(YRQCRG[dP]RR[2Nal]CY[Cit]K[dP]P); disulfide 4-11)	CXCR4 (Homo sapiens, UniProt P61073)	IC50	nM	4.1

Query :: Given N=C(N)NCCC[C@@H]1NC(=O)[C@@H]2CSSC[C@H](NC(=O)[C@H](Cc3c[nH]c4ccccc34)NC(=O)[C@H](CCCNC(=N)N)NC(=O)[C@H](CCCNC(=N)N)NC(=O)[C@H]3CCCN3C(=O)CNC1=O)C(=O)N[C@@H](Cc1ccc(O)cc1)C(=O)N[C@@H](CCCNC(N)=O)C(=O)N[C@@H](CCCCN)C(=O)N1CCC[C@@H]1C(=O)N1CCC[C@H]1C(=O)N[C@@H](Cc1ccc(O)cc1)C(=O)N[C@@H](CCCNC(=N)N)C(=O)N[C@@H](CCCNC(N)=O)C(=O)N2 [Ex. 128] (cyclo(YR[Cit]CRG[dP]RRWCY[Cit]K[dP]P); disulfide 4-11) , state its recorded IC50.
Result :: 4.5
